molecular target: CRAC channel (Homo sapiens, UniProt Q96D31); construct: endogenous in cells; host or cells: HEK293 (ECACC), untransfected; assay: HEK Calcium Influx Assay (FLIPR), inhibition of store-operated Ca2+ entry after thapsigargin store depletion; type: cell-based; settings: 10 μM compound, HEK293 cells, read-out: % inhib. [@ 10 μM] FLIPR
Sequence (Q96D31 whole entry): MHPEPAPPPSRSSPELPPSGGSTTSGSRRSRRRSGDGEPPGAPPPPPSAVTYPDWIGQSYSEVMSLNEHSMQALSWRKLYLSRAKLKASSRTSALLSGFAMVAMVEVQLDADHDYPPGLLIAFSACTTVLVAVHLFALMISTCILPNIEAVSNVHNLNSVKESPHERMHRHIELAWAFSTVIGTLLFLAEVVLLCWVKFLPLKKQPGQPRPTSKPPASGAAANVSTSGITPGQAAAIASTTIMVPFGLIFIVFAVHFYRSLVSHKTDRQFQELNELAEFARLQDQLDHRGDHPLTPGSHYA
The following compounds are listed with their measured inhibition at 10 µM values.

# count of solved cases: 3
compound="Cc1cc(S(C)(=O)=O)ncc1N1CCc2[nH]c(-c3ccncc3Cl)cc2C1 [Example 108]" measurement_label="inhibition at 10 µM" measured="< 50%"
compound="Cc1sc(C2CC2)nc1N1CCc2[nH]c(-c3c(F)cccc3Cl)cc2C1 [Example 61]" measurement_label="inhibition at 10 µM" measured="> 70%"
compound="Cc1sc(-c2ncco2)nc1N1CCc2[nH]c(-c3c(F)cccc3F)cc2C1=O [Example 54]" measurement_label="inhibition at 10 µM" measured="> 70%"

The record that follows has no inhibition at 10 µM shown yet.
Consider the compound COc1cc2c(cc1N1CCc3[nH]c(C4CCCCC4)cc3C1)CCS2(=O)=O [Example 103] . State its measured inhibition at 10 µM.
< 50%
